# test_target: TLR9 (Homo sapiens)
# Construct: expressed in transfected cells; host or cells: HEK293
# Sequence (Q9NR96 26-1032): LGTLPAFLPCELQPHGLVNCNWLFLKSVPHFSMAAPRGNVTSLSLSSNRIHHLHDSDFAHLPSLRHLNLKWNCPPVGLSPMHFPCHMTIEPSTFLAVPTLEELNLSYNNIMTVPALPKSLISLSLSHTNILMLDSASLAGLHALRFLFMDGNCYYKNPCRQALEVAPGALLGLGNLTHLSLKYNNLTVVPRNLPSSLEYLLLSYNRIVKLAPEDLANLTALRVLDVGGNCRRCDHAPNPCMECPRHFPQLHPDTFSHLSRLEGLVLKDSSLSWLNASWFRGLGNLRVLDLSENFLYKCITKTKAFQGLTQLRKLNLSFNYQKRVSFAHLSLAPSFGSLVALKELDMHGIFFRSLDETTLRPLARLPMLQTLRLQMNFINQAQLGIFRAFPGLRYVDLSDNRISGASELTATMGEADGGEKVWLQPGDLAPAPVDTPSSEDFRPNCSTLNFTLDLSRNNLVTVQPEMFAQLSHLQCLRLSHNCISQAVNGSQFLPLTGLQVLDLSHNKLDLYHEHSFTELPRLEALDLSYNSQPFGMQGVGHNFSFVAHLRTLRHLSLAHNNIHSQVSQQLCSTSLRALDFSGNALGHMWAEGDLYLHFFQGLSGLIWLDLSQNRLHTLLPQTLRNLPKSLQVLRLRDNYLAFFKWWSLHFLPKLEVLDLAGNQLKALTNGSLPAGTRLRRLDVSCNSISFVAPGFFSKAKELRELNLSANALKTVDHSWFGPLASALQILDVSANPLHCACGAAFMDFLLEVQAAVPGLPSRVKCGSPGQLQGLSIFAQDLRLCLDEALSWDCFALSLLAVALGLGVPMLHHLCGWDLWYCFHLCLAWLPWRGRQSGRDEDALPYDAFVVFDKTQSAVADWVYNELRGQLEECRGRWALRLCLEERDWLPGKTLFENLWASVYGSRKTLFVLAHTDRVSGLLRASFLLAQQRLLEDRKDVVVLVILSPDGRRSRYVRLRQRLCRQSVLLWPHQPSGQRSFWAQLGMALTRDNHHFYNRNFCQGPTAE
# test_method_notes: TLR9 screening of (+)-morphinan library, SEAP reporter in HEK293 cells expressing TLR9
# Type: cell-based
# study_conditions: HEK293, read-out: % Inhibition (mean), 10 μM; activator ODN2006
Catalogue of inhibition at 10 µM values
measure_name: inhibition at 10 µM (%)

[
  {
    "compound": "COc1ccc2c(c1O)[C@@]13CCN(CC4CC4)[C@@H](C2)[C@@]1(O)CC(OC)C(=O)C3 (stereo partly drawn)",
    "test_target": "TLR9 (Homo sapiens)",
    "measured_value": 29
  },
  {
    "compound": "COc1ccc2c3c1O[C@@H]1[C@@H]4CCC5(O4)[C@H](C2)N(CC2CC2)CC[C@@]315",
    "test_target": "TLR9 (Homo sapiens)",
    "measured_value": 65
  },
  {
    "compound": "COc1cc(Br)c2c3c1OC1C(=O)CC[C@@H]4[C@H](C2)N(C)CC[C@@]314 (stereo partly drawn)",
    "test_target": "TLR9 (Homo sapiens)",
    "measured_value": 69
  },
  {
    "compound": "CC(=O)NC1CC[C@]2(O)[C@@H]3Cc4ccc(O)c5c4[C@]2(CCN3CC2CC2)[C@@H]1O5 (stereo partly drawn)",
    "test_target": "TLR9 (Homo sapiens)",
    "measured_value": 36
  },
  {
    "compound": "COc1cc(Br)c2c(c1O)[C@@]13CCN(CC4CCC4)C(C2)C1CCC(=O)C3 (stereo partly drawn)",
    "test_target": "TLR9 (Homo sapiens)",
    "measured_value": 92
  },
  {
    "compound": "COc1ccc2c3c1O[C@@H]1C(=O)CC[C@]4(O)[C@H](C2)N(C(=O)c2ccccc2)CC[C@@]314",
    "test_target": "TLR9 (Homo sapiens)",
    "measured_value": 88
  },
  {
    "compound": "C=CCN1CC[C@]23C4=CC=C(OC)[C@H]2Oc2c(OC)ccc(c23)C[C@@H]41",
    "test_target": "TLR9 (Homo sapiens)",
    "measured_value": 76
  },
  {
    "compound": "COc1ccc2c3c1O[C@@H]1C(=O)CC[C@@H]4[C@H](C2)N(C(=O)C2CCC2)CC[C@@]314",
    "test_target": "TLR9 (Homo sapiens)",
    "measured_value": -2
  },
  {
    "compound": "COc1ccc2c3c1O[C@@H]1C(NC(C)=O)CC[C@@H]4[C@H](C2)N(C)CC[C@@]314 (stereo partly drawn)",
    "test_target": "TLR9 (Homo sapiens)",
    "measured_value": 29
  },
  {
    "compound": "COc1ccc2c3c1O[C@@H]1[C@@H]4CCC5(O4)[C@H](C2)N(C)CC[C@@]315",
    "test_target": "TLR9 (Homo sapiens)",
    "measured_value": 8
  },
  {
    "compound": "COc1ccc2c3c1OC1C(O)CC[C@@H]4[C@H](C2)N(C)CC[C@@]314 (stereo partly drawn)",
    "test_target": "TLR9 (Homo sapiens)",
    "measured_value": 91
  },
  {
    "compound": "COc1ccc2c3c1O[C@@H]1C(=O)CC[C@@H]4[C@H](C2)N(C(=O)C2CC2)CC[C@@]314",
    "test_target": "TLR9 (Homo sapiens)",
    "measured_value": 19
  },
  {
    "compound": "COC1=CCC2[C@@H]3Cc4ccc(OC)c5c4[C@]2(CCN3CC2CC2)[C@@H]1O5 (stereo partly drawn)",
    "test_target": "TLR9 (Homo sapiens)",
    "measured_value": 74
  },
  {
    "compound": "COC1=CC=C2[C@@H]3Cc4ccc(OC)c5c4[C@]2(CCN3CC2CCC2)[C@@H]1O5",
    "test_target": "TLR9 (Homo sapiens)",
    "measured_value": 87
  },
  {
    "compound": "COC1=CC=C2[C@@H]3Cc4ccc(OC)c5c4[C@]2(CCN3)[C@@H]1O5",
    "test_target": "TLR9 (Homo sapiens)",
    "measured_value": 92
  },
  {
    "compound": "COc1ccc2c3c1O[C@@H]1C(NCCO)CC[C@@H]4[C@H](C2)N(C)CC[C@@]314 (stereo partly drawn)",
    "test_target": "TLR9 (Homo sapiens)",
    "measured_value": 93
  },
  {
    "compound": "COc1ccc2c(c1O)[C@@]13CCN(C)[C@@H](C2)[C@@]1(O)CC(OC)C(=O)C3 (stereo partly drawn)",
    "test_target": "TLR9 (Homo sapiens)",
    "measured_value": 28
  },
  {
    "compound": "COc1ccc2c(c1O)[C@]13C=CCC[C@]1(O)[C@H](C2)N(C)CC3",
    "test_target": "TLR9 (Homo sapiens)",
    "measured_value": 93
  },
  {
    "compound": "COc1cc(-c2ccoc2)c2c(c1O)[C@@]13CCN(CC4CC4)C(C2)C1CCC(=O)C3 (stereo partly drawn)",
    "test_target": "TLR9 (Homo sapiens)",
    "measured_value": 91
  },
  {
    "compound": "COC1=CCC2[C@@H]3Cc4ccc(OC)c5c4[C@]2(CCN3C)[C@@H]1O5 (stereo partly drawn)",
    "test_target": "TLR9 (Homo sapiens)",
    "measured_value": 71
  },
  {
    "compound": "COc1ccc2c3c1O[C@@H]1CCC[C@]4(O)[C@H](C2)N(C)CC[C@@]314",
    "test_target": "TLR9 (Homo sapiens)",
    "measured_value": 27
  },
  {
    "compound": "COc1ccc2c3c1O[C@@H]1C(NC(C)=O)CC[C@]4(O)[C@H](C2)N(C)CC[C@@]314 (stereo partly drawn)",
    "test_target": "TLR9 (Homo sapiens)",
    "measured_value": 90
  },
  {
    "compound": "CCCNC1CCC2C3Cc4ccc(OC)c5c4[C@]2(CCN3C)C1O5 (stereo partly drawn)",
    "test_target": "TLR9 (Homo sapiens)",
    "measured_value": 93
  },
  {
    "compound": "C=CCN1CC[C@@]23c4c5ccc(OC)c4O[C@@H]2C(=O)CC[C@]3(O)[C@@H]1C5",
    "test_target": "TLR9 (Homo sapiens)",
    "measured_value": 45
  },
  {
    "compound": "O=C1CC[C@@H]2[C@@H]3Cc4ccc(O)c5c4[C@]2(CCN3)[C@@H]1O5",
    "test_target": "TLR9 (Homo sapiens)",
    "measured_value": 14
  },
  {
    "compound": "COc1ccc2c3c1O[C@@H]1C4(CCC5[C@H](C2)N(CC2CC2)CC[C@]351)OCCO4 (stereo partly drawn)",
    "test_target": "TLR9 (Homo sapiens)",
    "measured_value": 0
  },
  {
    "compound": "COc1cc(C(C)C)c2c3c1O[C@@H]1C(=O)CCC4C(C2)N(CC2CC2)CC[C@]341 (stereo partly drawn)",
    "test_target": "TLR9 (Homo sapiens)",
    "measured_value": 92
  },
  {
    "compound": "C=C(C)c1cc(OC)c(O)c2c1CC1C3CCC(=O)C[C@@]23CCN1CC1CC1 (stereo partly drawn)",
    "test_target": "TLR9 (Homo sapiens)",
    "measured_value": 93
  },
  {
    "compound": "Oc1ccc2c3c1O[C@@H]1[C@H](O)CC[C@]4(O)[C@H](C2)N(CC2CCC2)CC[C@@]314",
    "test_target": "TLR9 (Homo sapiens)",
    "measured_value": 65
  },
  {
    "compound": "COc1ccc2c(c1O)[C@@]13CCN(CC4CC4)C(C2)C1CCC(=O)C3 (stereo partly drawn)",
    "test_target": "TLR9 (Homo sapiens)",
    "measured_value": 91
  },
  {
    "compound": "COc1cc(Br)c2c3c1O[C@@H]1C(=O)CCC4C(C2)N(CC2CC2)CC[C@]341 (stereo partly drawn)",
    "test_target": "TLR9 (Homo sapiens)",
    "measured_value": 63
  },
  {
    "compound": "OCCNC1CC[C@]2(O)[C@@H]3Cc4ccc(O)c5c4[C@]2(CCN3CC2CC2)[C@@H]1O5 (stereo partly drawn)",
    "test_target": "TLR9 (Homo sapiens)",
    "measured_value": 93
  },
  {
    "compound": "C=CCN1CC[C@@]23CC(=O)CCC2C1Cc1ccc(OC)c(O)c13 (stereo partly drawn)",
    "test_target": "TLR9 (Homo sapiens)",
    "measured_value": 89
  }
]
